test system: HT-29; test: Induction of microtubule disruption in human HT-29 cells at 1 uM after 24 hrs; type: cell-based
The source made the active and inactive calls. The calls are words filed in the database; no cut-off is given here.
Possible outcomes: True (active), False (inactive)

- compound-string: "C=CCOC(=O)[C@@H]1C(C=O)=Cc2cc3c(cc2[C@H]1c1cc(OC)c(OC)c(OC)c1)OCO3"
  group-label: "True"
- compound-string: "COc1cc(COC(=O)[C@@H]2C(C=O)=Cc3cc4c(cc3[C@H]2c2cc(OC)c(OC)c(OC)c2)OCO4)cc(OC)c1OC"
  group-label: "True"
- compound-string: "COc1cc([C@@H]2c3cc4c(cc3C=C(C=O)[C@H]2C(=O)OC/C=C/c2ccccc2)OCO4)cc(OC)c1OC"
  group-label: "True"
- compound-string: "COc1cc([C@@H]2c3cc4c(cc3C=C(C=O)[C@H]2C(=O)OCCCBr)OCO4)cc(OC)c1OC"
  group-label: "False"

---

system: HT-29; test: Cytotoxicity against human HT-29 cells after 72 hrs by SRB assay; type: functional; conditions: HT-29, 72 h
measured-attribute: log10 GI50 (log10 of the value in nM)

- molecule: "CCNCC1=Cc2cc3c(cc2[C@@H](c2cc(OC)c(OC)c(OC)c2)[C@@H]1C(=O)OC)OCO3"
  tested-target: "HT-29"
  log10 GI50: 2.60
- molecule: "C=CCOC(=O)[C@@H]1C(C=O)=Cc2cc3c(cc2[C@H]1c1cc(OC)c(OC)c(OC)c1)OCO3"
  tested-target: "HT-29"
  log10 GI50: 1.30
- molecule: "CCC/N=C/C1=Cc2cc3c(cc2[C@@H](c2cc(OC)c(OC)c(OC)c2)[C@@H]1C(=O)OC)OCO3"
  tested-target: "HT-29"
  log10 GI50: 1.61
- molecule: "COc1cc([C@@H]2c3cc4c(cc3[C@H](O)[C@@H](CO)[C@H]2C(=O)N2CCCC2)OCO4)cc(OC)c1OC [PICROPODOPHYLLIC ACID PYRROLIDINYL AMIDE]"
  tested-target: "HT-29"
  log10 GI50: 3.89
- molecule: "COC(=O)[C@@H]1C(/C=N/c2ccc(OC)cc2)=Cc2cc3c(cc2[C@H]1c1cc(OC)c(OC)c(OC)c1)OCO3"
  tested-target: "HT-29"
  log10 GI50: 0.97
- molecule: "CCOC(=O)[C@H]1[C@H](c2cc(OC)c(OC)c(OC)c2)c2cc3c(cc2[C@H](O)[C@H]1CO)OCO3 [ETHYL PICROPODOPHYLLATE]"
  tested-target: "HT-29"
  log10 GI50: 1.95
- molecule: "COc1cc([C@@H]2c3cc4c(cc3[C@H](O)[C@@H](CO)[C@H]2C(=O)OCCCBr)OCO4)cc(OC)c1OC"
  tested-target: "HT-29"
  log10 GI50: 1.34
- molecule: "CCCCCCCOC(=O)[C@H]1[C@H](c2cc(OC)c(OC)c(OC)c2)c2cc3c(cc2[C@H](O)[C@H]1CO)OCO3 [HEPTYL PICROPODOPHYLLATE]"
  tested-target: "HT-29"
  log10 GI50: 2.20
- molecule: "CCOC(=O)COC(=O)[C@@H]1C(C=O)=Cc2cc3c(cc2[C@H]1c1cc(OC)c(OC)c(OC)c1)OCO3"
  tested-target: "HT-29"
  log10 GI50: 1.45
- molecule: "CCC/N=C/C1=Cc2cc3c(cc2[C@@H](c2cc(OC)c(OC)c(OC)c2)[C@@H]1C(=O)OCc1cc(OC)c(OC)c(OC)c1)OCO3"
  tested-target: "HT-29"
  log10 GI50: 0.63
- molecule: "CCOC(=O)[C@@H]1C(C=O)=Cc2cc3c(cc2[C@H]1c1cc(OC)c(OC)c(OC)c1)OCO3"
  tested-target: "HT-29"
  log10 GI50: 2.30
- molecule: "COc1cc([C@@H]2c3cc4c(cc3[C@H](O)[C@@H](CO)[C@H]2C(=O)OC/C=C/c2ccccc2)OCO4)cc(OC)c1OC [CINNAMYL PICROPODOPHYLLATE]"
  tested-target: "HT-29"
  log10 GI50: 2.18
- molecule: "CCOC(=O)COC(=O)[C@H]1[C@H](c2cc(OC)c(OC)c(OC)c2)c2cc3c(cc2[C@H](O)[C@H]1CO)OCO3 [ETHOXYCARBONYLMETHYL PICROPODOPHYLLATE]"
  tested-target: "HT-29"
  log10 GI50: 2.26
- molecule: "COc1cc([C@@H]2c3cc4c(cc3C=C(C=O)[C@H]2C(=O)N2CCCC2)OCO4)cc(OC)c1OC"
  tested-target: "HT-29"
  log10 GI50: 3.86

---

system: HT-29; test: Cell cycle arrest in human HT-29 cells assessed as accumulation at G2/M phase at 1 uM after 24 hrs by flow cytometry; assay type: functional

- compound-string: "C=CCOC(=O)[C@@H]1C(C=O)=Cc2cc3c(cc2[C@H]1c1cc(OC)c(OC)c(OC)c1)OCO3"
  Activity / %: 91.3
- compound-string: "CCNC(=O)[C@@H]1C(C=O)=Cc2cc3c(cc2[C@H]1c1cc(OC)c(OC)c(OC)c1)OCO3"
  Activity / %: 13.5
- compound-string: "COc1cc([C@@H]2c3cc4c(cc3C=C(C=O)[C@H]2C(=O)OCCCBr)OCO4)cc(OC)c1OC"
  Activity / %: 14.2
- compound-string: "CCOC(=O)COC(=O)[C@@H]1C(C=O)=Cc2cc3c(cc2[C@H]1c1cc(OC)c(OC)c(OC)c1)OCO3"
  Activity / %: 97.6
- compound-string: "COc1ccc(NC(=O)[C@@H]2C(C=O)=Cc3cc4c(cc3[C@H]2c2cc(OC)c(OC)c(OC)c2)OCO4)cc1"
  Activity / %: 25.2
- compound-string: "COc1cc([C@@H]2c3cc4c(cc3C=C(C=O)[C@H]2C(=O)OC/C=C/c2ccccc2)OCO4)cc(OC)c1OC"
  Activity / %: 96.4
- compound-string: "CCCCCCCOC(=O)[C@@H]1C(C=O)=Cc2cc3c(cc2[C@H]1c1cc(OC)c(OC)c(OC)c1)OCO3"
  Activity / %: 23.2
- compound-string: "COc1cc(COC(=O)[C@@H]2C(C=O)=Cc3cc4c(cc3[C@H]2c2cc(OC)c(OC)c(OC)c2)OCO4)cc(OC)c1OC"
  Activity / %: 97.5

---

Below is a list of entries, each paired with its recorded Activity value.
system: HT-29; test: Cell cycle arrest in human HT-29 cells assessed as accumulation at G0/G1 phase at 1 uM after 48 hrs by flow cytometry; type: functional

- compound-string: "COc1cc([C@@H]2c3cc4c(cc3C=C(C=O)[C@H]2C(=O)OC/C=C/c2ccccc2)OCO4)cc(OC)c1OC"
  unit-symbol: "%"
  Activity: 5.3
- compound-string: "COc1cc([C@@H]2c3cc4c(cc3C=C(C=O)[C@H]2C(=O)OCCCBr)OCO4)cc(OC)c1OC"
  unit-symbol: "%"
  Activity: 38.9
- compound-string: "COc1ccc(NC(=O)[C@@H]2C(C=O)=Cc3cc4c(cc3[C@H]2c2cc(OC)c(OC)c(OC)c2)OCO4)cc1"
  unit-symbol: "%"
  Activity: 50.4
- compound-string: "CCNC(=O)[C@@H]1C(C=O)=Cc2cc3c(cc2[C@H]1c1cc(OC)c(OC)c(OC)c1)OCO3"
  unit-symbol: "%"
  Activity: 33
- compound-string: "CCCCCCCOC(=O)[C@@H]1C(C=O)=Cc2cc3c(cc2[C@H]1c1cc(OC)c(OC)c(OC)c1)OCO3"
  unit-symbol: "%"
  Activity: 25.3
- compound-string: "C=CCOC(=O)[C@@H]1C(C=O)=Cc2cc3c(cc2[C@H]1c1cc(OC)c(OC)c(OC)c1)OCO3"
  unit-symbol: "%"
  Activity: 10.9
- compound-string: "COc1cc(COC(=O)[C@@H]2C(C=O)=Cc3cc4c(cc3[C@H]2c2cc(OC)c(OC)c(OC)c2)OCO4)cc(OC)c1OC"
  unit-symbol: "%"
  Activity: 6.8
- compound-string: "CCOC(=O)COC(=O)[C@@H]1C(C=O)=Cc2cc3c(cc2[C@H]1c1cc(OC)c(OC)c(OC)c1)OCO3"
  unit-symbol: "%"
  Activity: 4.7

---

test system: A549; assay: Cytotoxicity against human A549 cells after 72 hrs by SRB assay; assay type: functional; details: A549, 72 h
measured-attribute: GI50

- molecule: "CCOC(=O)COC(=O)[C@H]1[C@H](c2cc(OC)c(OC)c(OC)c2)c2cc3c(cc2[C@H](O)[C@H]1CO)OCO3 [ETHOXYCARBONYLMETHYL PICROPODOPHYLLATE]"
  measured-attribute: "GI50"
  result: "170 nM"
- molecule: "CCOC(=O)[C@@H]1C(C=O)=Cc2cc3c(cc2[C@H]1c1cc(OC)c(OC)c(OC)c1)OCO3"
  measured-attribute: "GI50"
  result: "180 nM"
- molecule: "CCCNCC1=Cc2cc3c(cc2[C@@H](c2cc(OC)c(OC)c(OC)c2)[C@@H]1C(=O)OC)OCO3"
  measured-attribute: "GI50"
  result: "1500 nM"
- molecule: "CCCCCCCOC(=O)[C@H]1[C@H](c2cc(OC)c(OC)c(OC)c2)c2cc3c(cc2[C@H](O)[C@H]1CO)OCO3 [HEPTYL PICROPODOPHYLLATE]"
  measured-attribute: "GI50"
  result: "190 nM"
